# Test system: HOP-62 NSCLC
# test.summary: NCI tumour cell line growth inhibition, 48 h
Could you please report measured TGI for the items listed next?
Write it as a number; the unit nM goes unstated.

Form: Entry = CC(=O)[CH-]C(C)=O.CC(=O)[CH-]C(C)=O.[CH2-]CCCCCCC.[CH2-]CCCCCCC.[Sn+4] | System = HOP-62 NSCLC | TGI = ____
40900

Form: Entry = Cc1c2cnccc2c(C)c2c1c1cc(CO)ccc1n2C | System = HOP-62 NSCLC | TGI = ____
2330

Form: Entry = O[N+]1=CC=CCC1=S.On1ccccc1=S.[Zn] | System = HOP-62 NSCLC | TGI = ____
2720

Form: Entry = COc1ccc2c(c1)c(=O)c1c(NCCN(C)C)ccc3c(=O)n(CCN(C)C)c(=O)n2c31 | System = HOP-62 NSCLC | TGI = ____
1780
